- TEST PROTOCOL: Randomized, controlled, open-label, 3-arm study (CC, SA, SW): total NNAL, CEMA and free cotinine measured in urine
- Type: in vivo, human
- ASSAY SETUP: human, inhaled, day 2, read-out: cotinine levels in conventional cigarette smokers
- Text: The study included healthy smokers switching to a heat-not-burn (smoke-free alternative (SW)) product or those observing smoking abstinence (SA), compared with continuing to use CC, for 5 days in confinement and prolonged by 85 days in an ambulatory setting. This was an ad libitum smoking study. Baseline measurements are taken by allowing the subject to smoke their chosen brand of conventional cigarette for 2 days. […]
QUANTITY: concentration at 2 day

Exam item: Value lookup for concentration at 2 day; key = CN1C(=O)CC[C@H]1c1cccnc1 [Free Cotinine, cotinine]
Marked response: 459 to 1350 ng/mL
